Data credit: PubChem BioAssay (NCI)

Tested on: TK-10 renal
Test: NCI tumour cell line growth inhibition, 48 h
Attribute measured: TGI

                                   molecule  subject_of_test  experimental_value
0  COc1ccc(C)cc1-c1cc(Sc2ccccc2)c(-c2cc(C)ccc2OC)o1      TK-10 renal           > 31.6 µM
1  Cc1cccc(C)c1NC(=O)CCCC(=O)C1/C(=N/NC(=O)CC#N)CCC/C1=N\NC(=O)CC#N (stereo not given)      TK-10 renal            > 100 µM
2  CCc1c(OC(C)=O)c2c(NC3OCC(OC(C)=O)C(OC(C)=O)C3OC(C)=O)nc(SC)nc2oc1=O (stereo not given)      TK-10 renal            > 100 µM
3  Nc1ccc(C2=NNC(=O)Cc3cc4c(cc32)OCCO4)cc1Cl      TK-10 renal             > 50 µM
4  N#CC(Cc1ccccc1)N(CCC1=CCCCC1)C(c1ccccc1)c1ccccc1 (stereo not given)      TK-10 renal            > 100 µM
